Source: PubChem BioAssay (NCI)

Each entry below carries its recorded GI50.
system: UACC-257 melanoma; assay: NCI tumour cell line growth inhibition, 48 h

Guide cases for GI50, answers given:
>  <compound>
O=C(/C=C/c1ccc([N+](=O)[O-])o1)NNC(=O)c1cc2ccccc2cc1O

>  <assayed_target>
UACC-257 melanoma

>  <measured_metric>
GI50

>  <reported>
0.906 µM

$$$$
>  <compound>
CCC(=O)N1C/C(=C/c2ccc(OC)cc2)C(=O)/C(=C/c2ccc(OC)cc2)C1

>  <assayed_target>
UACC-257 melanoma

>  <measured_metric>
GI50

>  <reported>
2.21 µM

$$$$
>  <compound>
CCCCS(=N)(=O)CC[C@H](N)C(=O)O (stereo not given in full)

>  <assayed_target>
UACC-257 melanoma

>  <measured_metric>
GI50

>  <reported>
> 10000 µM

$$$$

For `O=C1C=C(c2cc(Br)c(O)c(Br)c2)/C(=C/c2cc(Br)c(O)c(Br)c2)O1` , write its GI50. > 75 µM

Name the recorded GI50 of the item `CCCCc1cc(O)ccc1O` in your answer. 78.2 µM

* * *

system: SF-268 CNS; experiment: NCI tumour cell line growth inhibition, 48 h
Binning scheme for TGI: low end (below 20 µM), middle (20 µM to below 30 µM), high end (30 µM or more)

Some entries whose results are on file:
>  <compound>
N#C/C(=C(\O)C(=O)O)c1ccc(-c2cccc3ccccc23)cc1

>  <category>
high end

$$$$
>  <compound>
O=S(=O)(O)c1ccc2cc(N=Nc3cc(S(=O)(=O)O)c4cccnc4c3O)ccc2c1

>  <category>
high end

$$$$
>  <compound>
Brc1ccc2c(c1)C1=C(CO2)Cc2ccccc2O1

>  <category>
high end

$$$$
>  <compound>
CN(C)Cc1cc(N=Nc2ccc(Cl)c(Cl)c2)ccc1O

>  <category>
low end

$$$$
>  <compound>
c1ccc2c(c1)SC1Sc3ccccc3[S+]21 (stereo not given)

>  <category>
high end

$$$$

Kindly identify the class of `c1ccc(COc2ccc3[nH]c4c(ncc5[nH]c6ccccc6c54)c3c2)cc1` . high end

Exercise: read the entry CC(=O)Oc1ccc2c(c1)CC[C@@H]1C2[C@@H](O[N+](=O)[O-])C[C@@]2(C)C1CC[C@@H]2O (stereo not given in full) and state which class it falls under. high end

Just checking, what class would you give `O=C(O)c1[nH]c(C(=O)O)c(CC(F)(F)C(F)(F)C(F)(F)F)c1CC(F)(F)C(F)(F)C(F)(F)F` here? high end

Hello team, could you let me know which band the following compound falls into: `[Cl][Sn]([c]1ccccc1)[c]1ccccc1` low end

Exam item: assign `CCC(=O)N1C/C(=C/c2ccc(OC)cc2)C(=O)/C(=C/c2ccc(OC)cc2)C1` to the correct category. low end

Band of `O=C(Nc1ccc(Br)cc1)c1cc(Br)cc(Br)c1O` ? low end

* * *

Attribute: TGI
tested on: HS 578T breast; experiment: NCI tumour cell line growth inhibition, 48 h

>  <molecule>
NC(N)=N/N=C/c1c(-c2cc(Cl)sc2Cl)nc2n1CCS2

>  <reported>
21.8 µM

$$$$
>  <molecule>
CN(C)CCCOC(=O)C(O)(Cc1ccccc1)C1CC1 (stereo not given)

>  <reported>
> 100 µM

$$$$
>  <molecule>
CC(O)C(NC(=O)C(CS)NC(=O)C(CO)NC(=O)C(CCCCN)NC(=O)C(Cc1c[nH]c2ccccc12)NC(=O)C(Cc1ccc(O)cc1)NC(=O)C(CS)NC(=O)C(N)Cc1ccccc1)C(N)=O (stereo not given)

>  <reported>
> 25 µM

$$$$
>  <molecule>
COc1ccc([N+](=O)[O-])c2c(NCC(O)CO)ccnc12 (stereo not given)

>  <reported>
> 100 µM

$$$$
>  <molecule>
CCOC(=O)/C(=C\c1ccc(CO)o1)P(=O)(OCC)OCC

>  <reported>
> 100 µM

$$$$

Below: the item to evaluate.
Query TGI for Nc1ncnc2c1ncn2C1OC(C(=O)O)C(O)C1O (stereo not given) > 100 µM

* * *

tested on: HS 578T breast; experiment: NCI tumour cell line growth inhibition, 48 h
measured_metric: log10 of TGI (log10 of the value in µM)
// units: µM (pre-log); metric: TGI; scale: log10

Recorded log10 of TGI, per entry:
>  <molecule>
COc1ccc(-c2cn3c(n2)sc2cc(C)ccc23)cc1

>  <assayed_target>
HS 578T breast

>  <log10 of TGI>
1.83

$$$$
>  <molecule>
CC[C@H]1C=CCC[C@@]2(C[C@@H]3CC[C@@H]4[C@H](C(=O)OCCCCCCCCCCCCCCCC(=O)N(CCCN)C[C@@H](O)CCN)[C@]5(CCC[C@@H](C)O5)NC(=[N+]34)N2)O1

>  <assayed_target>
HS 578T breast

>  <log10 of TGI>
0.46

$$$$
>  <molecule>
C=C(CNCCO)[C@@H]1CC[C@]2(CO)CC[C@]3(C)[C@H](CC[C@@H]4[C@@]5(C)CCC(NCCc6ccc(O)cc6)C(C)(C)[C@@H]5CC[C@]43C)[C@@H]12 (some centres undefined)

>  <assayed_target>
HS 578T breast

>  <log10 of TGI>
0.57

$$$$
>  <molecule>
O=S1(=O)c2ccccc2N2CCCc3cc(Cl)cc1c32

>  <assayed_target>
HS 578T breast

>  <log10 of TGI>
1.93

$$$$
>  <molecule>
c1ccc(N=NNNc2ccc(-c3nc4ccccc4[nH]3)cc2)cc1

>  <assayed_target>
HS 578T breast

>  <log10 of TGI>
1.95

$$$$

Then there is this molecule:
State, for HS 578T breast, measured log10 of TGI of the molecule listed here: `COc1ccc2c(c1)CC[C@@H]1[C@@H]2CC[C@]2(C)/C(=N/OCCN3CCCCC3)CC[C@@H]12` 1.42

* * *

Reported TGI values for a set of compounds
test system: NCI-H226 lung; experiment: NCI tumour cell line growth inhibition, 48 h
Kindly answer with a numeric value in µM, unit omitted.

See these solved cases before continuing.
>  <compound>
C=C(CNCCO)[C@@H]1CC[C@]2(CO)CC[C@]3(C)[C@H](CC[C@@H]4[C@@]5(C)CCC(NCCc6ccc(O)cc6)C(C)(C)[C@@H]5CC[C@]43C)[C@@H]12 (stereo partly specified)

>  <measured_metric>
TGI

>  <unit_descriptor>
µM

>  <reported>
3.48

$$$$
>  <compound>
O=C1Cc2c(-c3ccccc3)cc(-c3cccc(Cl)c3)nc2-c2ccccc2N1

>  <measured_metric>
TGI

>  <unit_descriptor>
µM

>  <reported>
17.7

$$$$

Please find the next compound below.
Give reported TGI value for `CN(C)CCNc1cccc2sc3ccc(O)cc3c(=O)c12` 23.1

* * *

Recorded TGI, one value per entry.
test system: RPMI-8226 leukemia; test: NCI tumour cell line growth inhibition, 48 h

Past entries and their recorded results:
>  <compound>
CC/C=C\C[C@H](O)C/C=C1/C(=O)C=C[C@@H]1C/C=C\CCCC(N)=O

>  <TGI>
5.24 µM

$$$$
>  <compound>
CCOC(=O)/C(C1=CC(=O)C(=O)c2ccccc21)=C(/C)NCc1ccccc1

>  <TGI>
0.432 µM

$$$$
>  <compound>
COc1ccc([N+](=O)[O-])c2c(NCC(O)CO)ccnc12 (stereo unspecified)

>  <TGI>
> 100 µM

$$$$
>  <compound>
COc1cc(C2c3cc4c(cc3OC(N3CCOCC3)C2C)OCO4)cc(OC)c1O (stereo unspecified)

>  <TGI>
> 100 µM

$$$$
>  <compound>
O=C(N=Nc1c(O)[nH]c2ccccc12)c1ccccc1O

>  <TGI>
> 100 µM

$$$$

Write down TGI measured for item S=C1CC(c2ccc(Cl)cc2)Sc2ccccc2N1 (stereo unspecified) > 100 µM

Output TGI of Cc1c(C(=O)CC(=O)C(=O)NC2C3CC4CC(C3)CC2C4)[n+](=O)c2ccccc2n1[O-] (stereo unspecified) > 100 µM

Item `CCN(CC)C(=S)SSC1CCCCC1` : provide TGI 31.4 µM

* * *

tested on: T-47D breast; assay: NCI tumour cell line growth inhibition, 48 h
Classify by measured TGI: YES if it is equal to or exceeds 70 µM, NO if it is smaller.

Check out these entries, answers already filled in.
>  <molecule>
O=S(=O)(O)c1ccc2cc(N=Nc3cc(S(=O)(=O)O)c4cccnc4c3O)ccc2c1

>  <category>
YES

$$$$
>  <molecule>
c1ccc2c(NCCCCCCCCNc3c4ccccc4nc4ccccc34)c3ccccc3nc2c1

>  <category>
NO

$$$$
>  <molecule>
O=C(c1cccs1)N(C(=O)N1CCC(c2ccccc2)CC1)c1ccccc1

>  <category>
YES

$$$$
>  <molecule>
Cn1c(N/N=C/c2ccc(Cl)cc2)nc(-c2ccc(Cl)cc2)c(C#N)c1=O

>  <category>
YES

$$$$
>  <molecule>
Cc1c2cc[n+](C)cc2c(C)c2c1[nH]c1ccccc12

>  <category>
NO

$$$$

Say whether `Cn1c2ccccc2n2c3nc4ccccc4nc3c(C#N)c12` shows TGI of 70 µM or more. YES

Could you please find out whether `NNC(=O)c1ccccc1NC(=O)/C(=C/c1ccccc1)NC(=O)c1ccccc1` has TGI that meets 70 µM or exceeds it? YES

Assess whether reported TGI for `COc1ccc(N=C/C=C/Nc2ccc(OC)cc2)cc1` sits at 70 µM or higher. NO

Identify whether the reported TGI of the following molecule is 70 µM or greater: COc1cc(C2c3cc4c(cc3OC(N3CCOCC3)C2C)OCO4)cc(OC)c1O (stereo unspecified) YES

Threshold query (TGI >= 70 µM) on `Cc1cc2ccccc2c[n+]1CC(=O)CC([O-])(C(F)(F)F)C(F)(F)F` YES

Dear colleague, could you confirm whether `COc1cccc(-c2cc(=O)c3cc(C)cnc3[nH]2)c1` has TGI at or above 70 µM? YES

Hi team, for `CCCCc1cc(O)ccc1O` , is the recorded TGI at or above 70 µM? NO

hey, is TGI for this one >= 70 µM? Nc1ncnc2c1ncn2C1OC(C(=O)O)C(O)C1O (stereo unspecified) YES

// inclusive: TGI at least 70 µM? input: `Brc1ccc2c(c1)C1=C(CO2)Cc2ccccc2O1` NO

I'd appreciate it if you could say whether `CC(=O)O[C@H]1/C(=C/c2ccc(N(C)C)cc2)C[C@H]2[C@@H]3CC=C4C[C@@H](N5CCCC5)CC[C@]4(C)[C@H]3CC[C@]12C` has TGI at least equal to 70 µM. YES

Decide: is the reported value of TGI for `O=[N+]([O-])C(=C(NCc1ccccc1)NCc1ccccc1)C(Cl)=C(Cl)Cl` equal to or greater than 70 µM? YES

Item `CN(C)CN1C(=O)S/C(=C2\C(=O)N(CN(C)C)c3ccccc32)C1=O` with TGI of 70 µM or above? YES

TGI >= 70 µM for CCCCCC(C)C[C@H]1CO[C@H](c2ccc[nH]2)N[C@H]1C(=O)OC (stereo partly specified) ? YES

State whether the measured TGI reaches 70 µM, counting equality as reaching it, for OC1CCC(Oc2cccc3cnc(Nc4ccc5nc[nH]c5c4)nc23)CC1 (stereo unspecified) NO

Item C=C(CNCCO)[C@@H]1CC[C@]2(CO)CC[C@]3(C)[C@H](CC[C@@H]4[C@@]5(C)CCC(NCCc6ccc(O)cc6)C(C)(C)[C@@H]5CC[C@]43C)[C@@H]12 (stereo partly specified) with TGI of 70 µM or above? NO
